System: E. coli TESEC Mtb Alr
PROTOCOL_DESCRIPTION: growth (OD600 after 10 h); higher = more growth (less inhibition)
TEST_CONTEXT: arabinose 100000 nM; compound 0.1 mM; raw OD600 reference: median of DMSO wells 0.201, cell-free background 0.041
Documented growth across a set of compounds
ATTRIBUTE_MEASURED: growth

compound="CCc1ccc(CCOc2ccc(CC3SC(=O)NC3=O)cc2)nc1 (centres undefined)" attribute_measured=growth measured_number=0.176
compound=CC[C@@]1(O)C(=O)OCc2c1cc1n(c2=O)Cc2cc3c(CN(C)C)c(O)ccc3nc2-1 attribute_measured=growth measured_number=0.345
compound=O=C(O)c1ccccc1Nc1cccc(C(F)(F)F)c1 attribute_measured=growth measured_number=0.0593
compound="C#C[C@]1(OC(C)=O)CC[C@H]2[C@@H]3CCC4=C[C@@H](OC(C)=O)CC[C@@H]4[C@H]3CC[C@@]21C [Ethynodiol diacetate]" attribute_measured=growth measured_number=0.12

====

System: E. coli TESEC Mtb Alr
PROTOCOL_DESCRIPTION: growth (OD600 after 10 h); higher = more growth (less inhibition)
TEST_CONTEXT: arabinose 100000 nM; compound 0.1 mM; raw OD600 reference: median of DMSO wells 0.201, cell-free background 0.041
Where a name gives a salt, the structure may show the parent alone.
ATTRIBUTE_MEASURED: growth

molecule="CCN(CC)CCOC(=O)C(c1ccccc1)c1ccccc1 [Adiphenine hydrochloride]" measured_number=0.168
molecule="Nc1nc(NC2CC2)c2ncn([C@H]3C=C[C@@H](CO)C3)c2n1 [Abacavir Sulfate]" measured_number=0.182
molecule="CC(=O)O[C@]1(C(C)=O)CC[C@H]2[C@@H]3C=C(Cl)C4=CC(=O)[C@@H]5C[C@@H]5[C@]4(C)[C@H]3CC[C@@]21C [Cyproterone acetate]" measured_number=0.122
molecule="CCCCc1oc2ccccc2c1C(=O)c1cc(I)c(OCCN(CC)CC)c(I)c1 [Amiodarone hydrochloride]" measured_number=0.193
molecule="CN1[C@@H]2CC[C@H]1C[C@@H](OC(=O)c1c[nH]c3ccccc13)C2 [Tropisetron HCl]" measured_number=0.216
molecule=O=C(O)c1ccccc1C(=O)Nc1ccc(S(=O)(=O)Nc2nccs2)cc1 measured_number=0.198
molecule=Nc1nc2c(ncn2COC(CO)CO)c(=O)[nH]1 measured_number=0.202
molecule="CCN(CC)CCOC(=O)c1ccc(N)cc1 [Procaine hydrochloride]" measured_number=0.2

====

Tested on: E. coli TESEC Mtb Alr
PROTOCOL_DESCRIPTION: growth (OD600 after 10 h); higher = more growth (less inhibition)
TEST_CONTEXT: arabinose 1000 nM; compound 0.1 mM; raw OD600 reference: median of DMSO wells 0.294, cell-free background 0.041
Counter-ions that a name gives are not always drawn.
ATTRIBUTE_MEASURED: growth

compound="Cc1cc(/C=C/c2ccc3cc(N(C)C)ccc3[n+]2C)c(C)n1-c1ccccc1 [Pyrvinium pamoate]" measured_number=0.0602
compound=Nc1nnc(-c2cccc(Cl)c2Cl)c(N)n1 measured_number=0.206
compound="CCC(C)(C)c1ccc(CC(C)CN2C[C@@H](C)O[C@@H](C)C2)cc1 (some centres not stated) [Amorolfine hydrochloride]" measured_number=0.107
compound="Nc1ncn(C2OC(CO)C(O)C2O)c(=O)n1 (configuration not stated)" measured_number=0.106
compound=Nc1ccn([C@@H]2O[C@H](CO)[C@@H](O)C2(F)F)c(=O)n1 measured_number=0.208
compound=c1ccc2[nH]c(-c3cscn3)nc2c1 measured_number=0.275
compound=CC(C)(Oc1ccc(Cl)cc1)C(=O)O measured_number=0.313
compound="NCC[C@H](O)C(=O)N[C@@H]1C[C@H](N)[C@@H](O[C@H]2O[C@H](CN)[C@@H](O)[C@H](O)[C@H]2O)[C@H](O)[C@H]1O[C@H]1O[C@H](CO)[C@@H](O)[C@H](N)[C@H]1O [Amikacin hydrate]" measured_number=0.0418
compound="COc1ccc(-c2ccc(=N)n(CCCC(=O)O)n2)cc1 [Gabazine bromide]" measured_number=0.279
compound=CCCCC1=NC2(CCCC2)C(=O)N1Cc1ccc(-c2ccccc2-c2nnn[nH]2)cc1 measured_number=0.227
compound="Cc1cnc(C(=O)NCCc2ccc(S(=O)(=O)NC(=O)NC3CCCCC3)cc2)cn1 [Glipizide]" measured_number=0.289
compound="CC(C)(C)c1ccc(C(O)CCCN2CCC(C(O)(c3ccccc3)c3ccccc3)CC2)cc1 (configuration not stated)" measured_number=0.207
compound="CCCN(CCC)CCc1cccc2c1CC(=O)N2 [Ropinirole HCl]" measured_number=0.301
compound="CC(=O)Nc1c(I)c(C(=O)N[C@H]2C(O)O[C@H](CO)[C@@H](O)[C@@H]2O)c(I)c(N(C)C(C)=O)c1I (some centres not stated) [Metrizamide]" measured_number=0.307
compound=Cc1c(Cl)cccc1Nc1ccccc1C(=O)O measured_number=0.0448
compound="CCCc1cc(C(N)=S)ccn1 [Prothionamide]" measured_number=0.295
compound="CNC1(C)C2CCC(C2)C1(C)C (configuration not stated) [Mecamylamine hydrochloride]" measured_number=0.307
compound=O=C(O)c1ccccc1OP(=O)(O)O measured_number=0.292
compound="Clc1ccc2nsnc2c1NC1=NCCN1 [Tizanidine HCl]" measured_number=0.287
compound="O=C(c1ccccc1)c1ccc2n1CCC2C(=O)O (configuration not stated)" measured_number=0.262
compound=CC(=O)S[C@@H]1CC2=CC(=O)CC[C@]2(C)[C@H]2CC[C@@]3(C)[C@@H](CC[C@@]34CCC(=O)O4)[C@H]12 measured_number=0.0986
compound=C[C@@H]1NC(=O)NC1=O measured_number=0.292
compound="Cc1c(O)cccc1C(=O)N[C@@H](CSc1ccccc1)[C@H](O)CN1C[C@H]2CCCC[C@H]2C[C@H]1C(=O)NC(C)(C)C [Nelfinavir mesylate]" measured_number=0.329
compound=C[C@]12CC[C@H]3[C@@H](CCC4=CC(=O)CC[C@@]43C)[C@@H]1CC[C@@H]2C(=O)CO measured_number=0.163
compound="C=CC(N)CCC(=O)O (configuration not stated)" measured_number=0.279
compound="CC(=O)OCC(=O)[C@@]12OC3(CCCC3)O[C@@H]1C[C@H]1[C@@H]3CCC4=CC(=O)C=C[C@]4(C)[C@@]3(F)[C@@H](O)C[C@@]12C [Amcinonide]" measured_number=0.287
compound="C[N+](C)(CCOc1ccccc1)Cc1ccccc1.O=C([O-])c1cc2ccccc2cc1O [Bephenium hydroxynaphthoate]" measured_number=0.266
compound="Cn1c(=O)c2nc[nH]c2n(C)c1=O [Theophylline monohydrate]" measured_number=0.328
compound="O=C(OCC(O)CO)c1ccccc1Nc1ccnc2cc(Cl)ccc12 (configuration not stated) [Glafenine hydrochloride]" measured_number=0.146
compound=Nc1nc(Cl)nc2c1ncn2[C@H]1C[C@H](O)[C@@H](CO)O1 measured_number=0.165
compound="NC[C@@H]1O[C@H](O[C@H]2[C@@H](O)[C@H](O[C@@H]3[C@@H](O)[C@H](N)C[C@H](N)[C@H]3O[C@H]3O[C@H](CN)[C@@H](O)[C@H](O)[C@H]3N)O[C@@H]2CO)[C@H](N)[C@@H](O)[C@@H]1O [Neomycin sulfate]" measured_number=0.305
compound=CC[C@H](C)C(=O)O[C@H]1C[C@H](O)C=C2C=C[C@H](C)[C@H](CC[C@@H](O)C[C@@H](O)CC(=O)O)[C@H]21 measured_number=0.309
